# targetEntity: C-X-C chemokine receptor type 4 (Homo sapiens, UniProt P61073)
# Sequence (P61073 whole entry): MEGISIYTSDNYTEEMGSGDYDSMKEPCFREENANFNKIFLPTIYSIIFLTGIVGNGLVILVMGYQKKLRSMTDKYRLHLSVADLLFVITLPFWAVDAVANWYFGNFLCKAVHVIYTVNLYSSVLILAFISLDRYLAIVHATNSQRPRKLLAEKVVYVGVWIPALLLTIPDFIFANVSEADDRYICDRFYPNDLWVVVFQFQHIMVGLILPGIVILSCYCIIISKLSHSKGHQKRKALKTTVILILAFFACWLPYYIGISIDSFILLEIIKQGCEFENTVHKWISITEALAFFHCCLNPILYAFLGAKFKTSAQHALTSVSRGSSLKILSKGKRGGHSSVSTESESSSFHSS
# assayDetails: Binding affinity to CXCR4 (unknown origin) expressed in CHO cells incubated for 40 mins by competitive binding assay method
# Assay type: cell-based
assayEndpoint: IC50 (µM)

Record excerpt, results attached:
>  <smilesRecord>
O=[N+]([O-])c1cc(CNCCCNC2CCCCC2)cc(CNCCCNC2CCCCC2)c1

>  <assayEndpoint>
IC50

>  <observedValue>
0.147

$$$$
>  <smilesRecord>
c1ccc2c(CNCCCNC3CCCCC3)ccc(CNCCCNC3CCCCC3)c2c1

>  <assayEndpoint>
IC50

>  <observedValue>
0.0408

$$$$

a. Nc1cc(CNCCCNC2CCCCC2)cc(CNCCCNC2CCCCC2)c1
b. c1c(CNCCCNC2CCCCC2)cc(CNCCCNC2CCCCC2)cc1CNCCCNC1CCCCC1
Given the listed records, identify the one among a and b with higher IC50. Refer to your chosen entry by its label in the reply.
b
(b: 0.312 µM, a: 0.0812 µM)

A. c1cc(CNCCCNC2CCCCC2)nc(CNCCCNC2CCCCC2)c1
B. O=C(NCCCNC1CCCCC1)c1ccc(C(=O)NCCCNC2CCCCC2)cc1
C. Nc1cc(CNCCCNC2CCCCC2)ccc1CNCCCNC1CCCCC1
D. O=C(NCCCNC1CCCCC1)c1ccc(CNCCCNC2CCCCC2)cc1
E. O=[N+]([O-])c1cc(CNCCCNC2CCCCC2)ccc1CNCCCNC1CCCCC1
In this exercise, place the 5 compounds in ascending sequence of their recorded IC50. Write the labels in rank order as requested.
C, A, E, D, B
(C: 0.0689 µM, A: 0.122 µM, E: 0.354 µM, D: 0.699 µM, B: 1.7 µM)
